# Test system: L1210
# test-summary: Compound was tested for the growth inhibition of murine L1210 cell at a duration of 48 h
# Assay type: functional, cell-based
# condition: Mus musculus, L1210, 48 h
pIC50: −log10 of the molar value.
endpoint: pIC50

[ask] Need pIC50 of "CC(=O)NCCCNCCCCNCCCN" , thanks.
[reply] < 4.00
